tested on: SF-295 CNS; assay: NCI tumour cell line growth inhibition, 48 h
EXPERIMENTAL ENDPOINT: TGI

Please review the following examples before continuing.
COMPOUND	TGI
O=C(c1ccco1)N(C(=S)OCCOc1ccccc1)c1ccccc1	36.6 µM
CCOC(=O)c1cc2c3ccn(Cc4ccccc4)c3c3c(C)[nH]oc3c2n1	> 100 µM

COCC[C@H]1CCC/C=C/[C@@H]2C[C@H](O)C[C@H]2[C@H](O)/C=C/C(=O)O1 has a reported TGI of > 100 µM

COc1ccc(-c2[nH]c3ccc(OC)cc3c2/C=C(\C#N)S(=O)(=O)c2ccccc2)cc1 has a reported TGI of > 23.9 µM

N#Cc1cc(-c2cc3ccccc3o2)oc1N has a reported TGI of 4.97 µM

CCc1cc(Cc2cc(CC)c(NC(=O)C(=O)CC(=O)c3sc(-c4cccnc4)nc3C)c(CC)c2)cc(CC)c1NC(=O)C(=O)CC(=O)c1sc(-c2cccnc2)nc1C has a reported TGI of > 100 µM

COc1ccc(-c2cc(-c3cc(C)cc(Br)c3O)no2)cc1 has a reported TGI of 14.4 µM

Cn1c(O)c(C(=O)NC2CCCCC2)c(=O)n(C)c1=S has a reported TGI of 17.8 µM

COc1cc2ncnc(-n3ncc4cc(NC(=O)Nc5ccccc5)ccc43)c2cc1OC has a reported TGI of 5.87 µM

CCOC(=O)c1ccc(N[C@@H]2c3cc4c(cc3C(c3cc(OC)c(O)c(OC)c3)[C@H]3C(=O)OCC32)OCO4)cc1O (some centres not stated) has a reported TGI of 2.96 µM

CC(=O)C1Cn2c(nc3ccccc32)C[Se]1 (configuration not stated) has a reported TGI of 10.1 µM

CCCCC1Cc2ccccc2-c2nc3ccccc3n21 (configuration not stated) has a reported TGI of 30.8 µM

CCCN(CCC)C(=O)c1c([N+](=O)[O-])cc(C(F)(F)F)cc1[N+](=O)[O-] has a reported TGI of > 100 µM

CN(C)CC1CCCC(CN(C)C)C1OC(=O)c1ccccc1 (configuration not stated) has a reported TGI of > 100 µM

COC(=O)C12CC3CC(CC(C(=O)O)(C3)C1)C2 has a reported TGI of > 100 µM

Cc1ccc(NC(=O)c2cccc(C(C)(C)C#N)c2)cc1Nc1ccc2ncn(C)c(=O)c2c1 has a reported TGI of > 100 µM

CC(=O)Nc1ccc(/C=C/c2ccc(NC(=O)Nc3ccc(/C=C/c4ccc(NC(C)=O)cc4S(=O)(=O)O)c(S(=O)(=O)O)c3)cc2S(=O)(=O)O)c(S(=O)(=O)O)c1 has a reported TGI of > 100 µM

CSc1cc(Cl)c(C)cc1S(=O)(=O)NC(=O)NNc1cccc(C(F)(F)F)n1 has a reported TGI of > 100 µM

COc1cc(OC)c2c(C)cc(=O)oc2c1 has a reported TGI of > 100 µM

COc1c2c(cc3c1OCO3)[C@]13C=C[C@H](OC)C[C@H]1N(C2)CC3O (some centres not stated) has a reported TGI of > 100 µM

Clc1cc(Cl)c2ns[s+]c2c1Cl has a reported TGI of > 100 µM

c1ccc(CNc2nncc3[nH]cnc23)cc1 has a reported TGI of > 100 µM
